assayed system: Tubulin (Sus scrofa, UniProt P02554+P02550)
assay: Inhibition of porcine brain tubulin polymerization after 60 mins
recorded metric: IC50 (µM)

Sample answers from the record:
compound | IC50 [µM]
COc1cc2c(cc1O)CC[C@@H]1[C@@H]2CC[C@]2(C)[C@@H](c3cncc4c3CCCC4)CC[C@@H]12 | 2.5
COc1cc2c(cc1O)CC[C@@H]1[C@@H]2CC[C@]2(C)C(c3cccc4ncccc34)=CC[C@@H]12 | 3.1
COc1cc2c(cc1O)CC[C@@H]1[C@@H]2CC[C@]2(C)C(c3cccc4cnccc34)=CC[C@@H]12 | 7.2

1. COc1cc2c(cc1O)CC[C@@H]1[C@@H]2CC[C@]2(C)C(c3ccc4cnccc4c3)=CC[C@@H]12
2. COc1cc2c(cc1O)CC[C@@H]1[C@@H]2CC[C@]2(C)C(c3ccncc3)=CC[C@@H]12
3. COc1cc2c(cc1O)CC[C@@H]1[C@@H]2CC[C@]2(C)[C@@H](c3cccc4cnccc34)CC[C@@H]12
Query block: Falling order of IC50, please. Please respond by ranking the labels in the order requested.
Result block: 3, 2, 1
(3: 8.1 µM, 2: 4.1 µM, 1: 2.2 µM)

###

System: K562
assay: Anticancer activity against human K562 cells assessed as cell growth inhibition after 5 days by MTT assay
Format: functional, cell-based
setup conditions: K562, 120 h
recorded metric: IC50 (µM)

A. COc1cc2c(cc1O)CC[C@@H]1[C@@H]2CC[C@]2(C)[C@@H](c3cccc4cnccc34)CC[C@@H]12
B. COc1cc2c(cc1O)CC[C@@H]1[C@@H]2CC[C@]2(C)C(c3cccc4cnccc34)=CC[C@@H]12
Query block: Could you point out whether the larger IC50 belongs to A or to B ? Reply briefly: the label of your chosen item.
Result block: B

###

Tested on: K562
assay: Anticancer activity against human K562 cells assessed as cell growth inhibition after 5 days by MTT assay
Type: functional, cell-based
setup conditions: K562, 120 h
recorded metric: IC50 (nM)

A. COc1cc2c(cc1O)CC[C@@H]1[C@@H]2CC[C@]2(C)C(c3ccc4cnccc4c3)=CC[C@@H]12
B. COc1cc2c(cc1O)CC[C@@H]1[C@@H]2CC[C@]2(C)[C@@H](c3ccc4cnccc4c3)CC[C@@H]12
C. COc1cc2c(cc1O)CC[C@@H]1[C@@H]2CC[C@]2(C)[C@@H](c3ccncc3)CC[C@@H]12
Query block: Task for the reader: rank each entry by its IC50, from the minimum upward. Please respond by ranking the labels in the order requested.
Result block: A, B, C

a. COc1cc2c(cc1O)CC[C@@H]1[C@@H]2CC[C@]2(C)[C@@H](c3cccnc3)CC[C@@H]12
b. COc1cc2c(cc1O)CC[C@@H]1[C@@H]2CC[C@]2(C)[C@@H](c3cncc4c3CCCC4)CC[C@@H]12
Query block: Looking at a and b , which one comes out lower in IC50 terms? Reply briefly: the label of your chosen item.
Result block: b
(b: 500 nM, a: 1100 nM)

1. COc1cc2c(cc1O)CC[C@@H]1[C@@H]2CC[C@]2(C)C(c3cncc4ccccc34)=CC[C@@H]12
2. COc1cc2c(cc1O)CC[C@@H]1[C@@H]2CC[C@]2(C)C(c3ccncc3)=CC[C@@H]12
Query block: Could you point out whether the larger IC50 belongs to 1 or to 2 ? Reply briefly: the label of your chosen item.
Result block: 2

###

Test system: K562
assay: Anticancer activity against human K562 cells assessed as cell growth inhibition after 5 days by MTT assay
Type: functional, cell-based
setup conditions: K562, 120 h
recorded metric: IC50 (µM)

cpd smiles | value reported
COc1cc2c(cc1O)CC[C@@H]1[C@@H]2CC[C@]2(C)C(c3cccc4ncccc34)=CC[C@@H]12 | 1.1
COc1cc2c(cc1O)CC[C@@H]1[C@@H]2CC[C@]2(C)[C@@H](c3cccc4c3CCCN4)CC[C@@H]12 | 1.3

###

assayed system: Tubulin (Sus scrofa, UniProt P02554+P02550)
assay: Inhibition of porcine brain tubulin polymerization after 60 mins
recorded metric: IC50 (µM)

Sample answers from the record:
cpd smiles | IC50 / µM
COc1cc2c(cc1O)CC[C@@H]1[C@@H]2CC[C@]2(C)C(c3cncc4ccccc34)=CC[C@@H]12 | 4.8
COc1cc2c(cc1O)CC[C@@H]1[C@@H]2CC[C@]2(C)[C@@H](c3cccnc3)CC[C@@H]12 | 5.1
COc1cc2c(cc1O)CC[C@@H]1[C@@H]2CC[C@]2(C)[C@@H](O)CC[C@@H]12 | 2.2

P. COc1cc2c(cc1O)CC[C@@H]1[C@@H]2CC[C@]2(C)[C@@H](c3ccc4cnccc4c3)CC[C@@H]12
Q. COc1cc2c(cc1O)CC[C@@H]1[C@@H]2CC[C@]2(C)[C@@H](c3ccncc3)CC[C@@H]12
R. COc1cc2c(cc1O)CC[C@@H]1[C@@H]2CC[C@]2(C)[C@@H](c3cccc4c3CCCN4)CC[C@@H]12
Query block: Falling order of IC50, please. Please respond by ranking the labels in the order requested.
Result block: Q, R, P
